target: recombinant human Meningioma Expressed Antigen 5 (MGEA5), also referred to as O-GlcNAcase (OGA) (Homo sapiens); construct: Full length OGA enzyme was purchased at OriGene (cat # TP322411); purchased OriGene TP322411; test: OGA biochemical assay (inhibition of FM-GlcNAc hydrolysis, fluorescence); details: read-out: ENZYMATIC Emax (%)
metric.name: Emax (%)
Unit % implied. Number only.

Worked cases, Emax given:
>>> number("COc1cc(N2CCC3(CCN(Cc4cnc(NC(C)=O)s4)C3)C2)ccn1 (centres unmarked)")
102
>>> number("Cc1cc(N2CCC3(CCN(C(C)c4ccc5sc(C)nc5c4)C3)C2)cc(C)n1 (centres unmarked)")
101
>>> number("CC(=O)Nc1ncc(CN2CCC3(CCN(c4cnc(C)c(C)c4)C3)C2)s1 (centres unmarked)")
100
>>> number("CC(=O)Nc1ncc(CN2CCC3(CCN(c4cc(C)ncc4C)C3)C2)s1 (centres unmarked)")
101

Emax for Cc1cc(N2CCC3(CCN(C(C)c4ccc5sc(C)nc5c4)C3)C2)nc(C)n1 (centres unmarked) ? 102

----------
Biological target: recombinant human Meningioma Expressed Antigen 5 (MGEA5), also referred to as O-GlcNAcase (OGA) (Homo sapiens)
Construct: Full length OGA enzyme was purchased at OriGene (cat # TP322411); purchased OriGene TP322411
Sequence (O60502 1-916): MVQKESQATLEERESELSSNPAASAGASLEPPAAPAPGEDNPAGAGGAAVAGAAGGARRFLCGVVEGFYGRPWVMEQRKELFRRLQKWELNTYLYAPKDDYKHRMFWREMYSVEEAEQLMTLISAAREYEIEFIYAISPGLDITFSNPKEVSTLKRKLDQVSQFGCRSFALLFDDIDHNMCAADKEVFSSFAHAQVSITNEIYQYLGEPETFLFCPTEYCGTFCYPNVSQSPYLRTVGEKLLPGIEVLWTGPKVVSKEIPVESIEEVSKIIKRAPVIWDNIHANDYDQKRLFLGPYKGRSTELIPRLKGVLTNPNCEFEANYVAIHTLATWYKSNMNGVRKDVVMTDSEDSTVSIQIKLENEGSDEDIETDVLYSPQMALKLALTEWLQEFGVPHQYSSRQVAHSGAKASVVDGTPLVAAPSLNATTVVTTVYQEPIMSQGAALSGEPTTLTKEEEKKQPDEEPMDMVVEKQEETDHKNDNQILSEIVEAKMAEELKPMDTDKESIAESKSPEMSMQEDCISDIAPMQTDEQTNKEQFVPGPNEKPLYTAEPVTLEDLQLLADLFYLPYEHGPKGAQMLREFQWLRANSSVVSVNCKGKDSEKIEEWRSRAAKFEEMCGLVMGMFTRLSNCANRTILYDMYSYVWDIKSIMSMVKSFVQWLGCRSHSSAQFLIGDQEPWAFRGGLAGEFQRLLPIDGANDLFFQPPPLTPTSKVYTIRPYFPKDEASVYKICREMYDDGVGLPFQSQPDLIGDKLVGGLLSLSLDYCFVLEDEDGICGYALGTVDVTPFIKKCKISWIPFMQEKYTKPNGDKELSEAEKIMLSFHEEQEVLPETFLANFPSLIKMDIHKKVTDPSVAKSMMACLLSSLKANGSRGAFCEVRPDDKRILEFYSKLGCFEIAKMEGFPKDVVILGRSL
Assay: OGA biochemical assay (inhibition of FM-GlcNAc hydrolysis, fluorescence)
Settings: read-out: ENZYMATIC Emax (%)
metric.name: Emax (%)
Write the answer as a number in %, unit excluded.

>>> number("COc1cc(C)cc(N2CCC3(CCN(Cc4cnc(NC(C)=O)s4)C3)C2)n1 (centres unmarked)")
99.7
>>> number("Cc1cc(N2CCC3(CCN(C(C)c4ccc5nccnc5c4)C3)C2)cc(C)n1 (single isomer, unassigned) [Product 7]")
98.6
>>> number("Cc1cc(N2CCC3(CCN(C(C)c4ccc5c(c4)OCO5)C3)C2)cc(C)n1 (centres unmarked)")
96.6
>>> number("Cc1cc(N2CCC3(CCN(C(C)c4cnc5c(c4)OCCO5)C3)C2)cc(C)n1 (centres unmarked)")
99
>>> number("CC(=O)Nc1ncc(CN2CCC3(CCN(c4ccc(C)nc4C#N)C3)C2)s1 (centres unmarked)")
101

Emax lookup needed for CC(=O)Nc1ncc(CN2CCC3(CCN(c4cc(C)nc(C)c4)C3)C2)s1 (single isomer, unassigned) [Product 2] , thanks. 101

Given Cc1cc(N2CCC3(CCN(Cc4nc5ccccc5[nH]4)C3)C2)nc(C)n1 (centres unmarked) , state its recorded Emax. 100

Returns the measured Emax for the input compound. Input: Cc1cc(N2CCC3(CCN(Cc4ccc5nccnc5c4)C3)C2)cc(C)n1 (single isomer, unassigned) 98.8
